The measured values listed here are drawn from patent US20220267469A1.

Here, each record is paired with measured percentage reduction of b-hBSSL binding to CD14+ monocytes data.
# Test system: T1, Biotinylated human BSSL (human, UniProt P19835 21-753, Biotinylated on glycosacarides, 30-40 biotin/BSSL)
# T1 construct: hBSSL biotinylated in house; also called b-hBSSL; human BSSL-biotin
# T1 sequence: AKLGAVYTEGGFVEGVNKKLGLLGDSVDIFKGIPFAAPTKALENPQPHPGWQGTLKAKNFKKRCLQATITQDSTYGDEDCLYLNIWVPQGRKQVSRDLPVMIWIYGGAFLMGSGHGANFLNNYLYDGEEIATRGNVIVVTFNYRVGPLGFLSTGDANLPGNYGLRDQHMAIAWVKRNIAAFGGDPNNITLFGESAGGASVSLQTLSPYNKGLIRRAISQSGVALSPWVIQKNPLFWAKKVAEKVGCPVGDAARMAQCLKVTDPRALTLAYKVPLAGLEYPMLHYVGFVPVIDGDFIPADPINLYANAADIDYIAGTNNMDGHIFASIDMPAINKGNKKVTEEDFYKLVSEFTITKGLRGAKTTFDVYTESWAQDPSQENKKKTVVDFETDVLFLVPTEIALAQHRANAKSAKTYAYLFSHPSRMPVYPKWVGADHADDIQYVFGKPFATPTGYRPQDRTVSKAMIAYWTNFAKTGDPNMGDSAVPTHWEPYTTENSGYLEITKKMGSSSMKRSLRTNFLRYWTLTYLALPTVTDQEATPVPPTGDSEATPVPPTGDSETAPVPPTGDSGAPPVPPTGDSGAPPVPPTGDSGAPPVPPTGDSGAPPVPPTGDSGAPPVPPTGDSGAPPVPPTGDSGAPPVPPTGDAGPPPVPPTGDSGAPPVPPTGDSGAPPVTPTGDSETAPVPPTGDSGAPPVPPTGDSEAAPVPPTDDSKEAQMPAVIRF
# Test details: flow cytometry displacement assay; 1.5 ug antibody, 1 ug b-hBSSL
# Description: The 28 BSSL-specific hIgG4 antibodies and the five reference antibodies at different concentrations (ranging from 0.5 μg to 3.0 μg per reaction; see Table 10) were added to b-hBSSL (1 μg per reaction, see Table 2) in round-bottom polystyrene tubes, lx PBS (pH 7.4) was added to a final volume of 20 μl and the antibody/b-hBSSL mixtures were incubated for 30 min. at +4° C. to facilitate binding of antibodies to BSSL. […]
State the value, then name its unit.

Asked: Quick one: percentage reduction of b-hBSSL binding to CD14+ monocytes for S-SL048-40 hIgG4 S228P (antibody, V domains shown, Tested as human IgG4 S228P) VH: QVQLVQSGAEVKKPGASVKVSCKASGYTFTSYNMHWVRQAPGQGLEWIGVINPSDGATSYAQKFQGRVTMTRDTSTSTVYMELSSLRSEDTAVYYCARDYYGSSPLGYWGQGTLVTVSS VL: DIQMTQSPSSLSASVGDRVTITCRASSSISYLNWYQQKPGKAPKLLIYAASRLPSGVPSRFSGSGSGTDFTLTISSLQPEDFATYYCQQRSSSPTFGQGTKLEIK ?
Given back: 44%

Asked: Which percentage reduction of b-hBSSL binding to CD14+ monocytes value is on record for S-SL048-46 hIgG4 S228P (antibody, V domains shown, also called clone 46; mAb46) VH: QVQLVQSGAEVKKPGASVKVSCKASGYTFTSYNMHWVRQAPGQGLEWMGVINPGDGATSYNQKFQGRVTMTRDTSTSTVYMELSSLRSEDTAVYYCARDYYGSSPLGYWGQGTLVTVSS VL: DIQMTQSPSSLSASVGDRVTITCRASSSISYLNWYQQKPGKAPKLLIYAASSLASGVPSRFSGSGSGTDFTLTISSLQPEDFATYYCHQRSSSPTFGQGTKLEIKR ?
Given back: 43%
